System: A549
Assay: NCI tumour cell line growth inhibition, 48 h
The source made the active and inactive calls. Cut-off read from the data, not from the text of the source: active = GI50 up to about 1.1 µM and inactive = higher.

| compound | GI50 |
| --- | --- |
| O=C(CCO)OCCCCCC/C=C\CCCCCC/C=C\CCCCCCCCOC(=O)CCO | 15.9 µM (inactive) |
| CC1CCCC(CC(=O)O)(CC(=O)O)C1 (stereo not given) | > 100 µM (inactive) |
| COC(=O)c1ccccc1NC(=O)C(=O)Cc1nc2c3c(ccc2nc1O)C(=O)c1ccccc1C3=O | 14 µM (inactive) |
| Cc1nc(O)nc2nc3ccc(Cl)cc3c(NCCNCCO)c12 | 17.4 µM (inactive) |
| COC(=O)C1=C(C)C(=O)[C@]23C(CCCC[C@H]12)C(=O)[C@H](C(=O)OC)C3C (stereo not given in full) | > 100 µM (inactive) |
| O=C(CC(=O)N1N=C(c2ccccc2)C(/N=N/c2ccc(Cl)cc2)C1=O)Nc1ccccc1Cl (stereo not given) | 13.2 µM (inactive) |
| CC1C2(C)OC(=N)C(C#N)(C(c3ccccc3)O2)C1(C#N)C#N (stereo not given) | > 100 µM (inactive) |
| Cc1cc(S(=O)(=O)Nc2nc(N)nc(N3N=CCC3C)n2)c(SCC(=O)O)cc1Cl (stereo not given) | > 10 µM (inactive) |
| O=C(CO[N+](=O)[O-])OC/C=C/c1ccccc1 | > 100 µM (inactive) |
| CC12CCC(C(Nc3ccccn3)C1=O)C2(C)C (stereo not given) | > 100 µM (inactive) |

* * *

Test system: HT-29
Experiment: NCI tumour cell line growth inhibition, 48 h
Activity calls are given as the source filed them. No stated cut-off is given here; in the data, active = GI50 up to about 1.1 µM and inactive = higher.
Labels: active, inactive

| molecule | label |
| --- | --- |
| CSc1nc(SC)c2c(C)c(Br)[nH]c2n1 | inactive |
| COc1ccc(OC)c(NC2=NCCO2)c1 | inactive |
| Nc1ncnc2c1ncn2CCCNO | inactive |
| CC1CC[C@]2(C(=O)O)CCC3(COC(=O)/C=C\c4ccc(O)cc4)C(=CCC4[C@@]5(C)CC[C@H](O)C(C)(C)C5CC[C@]43C)[C@@H]2[C@H]1C (some centres not stated) | inactive |
| Cc1nc(O)nc2nc3ccc(Cl)cc3c(NCCNCCO)c12 | inactive |
| O=C(CCO)OCCCCCC/C=C\CCCCCC/C=C\CCCCCCCCOC(=O)CCO | inactive |
| CCOC(=O)c1oc2ccc([N+](=O)[O-])c3c2c1CCC3 | inactive |
| COc1ccc2nc3cc(Cl)ccc3c(Sc3ccc(NC(C)=O)cc3)c2c1 | inactive |
| COc1ccc(O[C@H](CO)C[C@@H]2COC(C)(C)O2)cc1 | inactive |
| CC1C2(C)OC(=N)C(C#N)(C(c3ccccc3)O2)C1(C#N)C#N (configuration not stated) | inactive |
| CCOC(=O)Nc1cc2c(c(N)n1)N=C(c1ccc(OC)cc1)CN2 | active |
| COC(=O)/C(=N\NC(N)=O)C(C(=O)C(=O)Nc1ccccc1OC)c1nc2ccc([N+](=O)[O-])cc2nc1O (configuration not stated) | inactive |
| CCOC(=O)c1[nH]cc(C)c1-c1ccn(-c2ccccc2)c1 | inactive |
| Nc1nc(O)nc2sc3c(c12)CCCC3 | inactive |
| COc1ccc(CC/N=C2\OCc3ccccc32)cc1OC | inactive |
| Nc1ncnc2c1cnn2Cc1cn(COCC(O)CO)nn1 (configuration not stated) | inactive |
| CC12CCC3=C(CSC4=C3CSc3ccccc34)C1=CCCC2=O (configuration not stated) | inactive |
| O=C(CCN1CCCCC1)Nc1ccc2sc3ccccc3c(=O)c2n1 | inactive |
| COc1ccccc1NC(=O)C1=C(C)NC(C)=C(C(=O)Nc2ccccc2OC)C1c1ccccc1OC | inactive |
| O=C(Nc1sccc1S(=O)(=O)c1ccc(Cl)cc1)c1ccc(Cl)cc1Cl | inactive |
| O=C1c2ccccc2C(=O)N1CCCCCCNOCCCN1C(=O)c2ccccc2C1=O | inactive |
| C[C@H]1[C@H](C)N1CC(O)Cn1ccnc1[N+](=O)[O-] (some centres not stated) | inactive |

* * *

Test system: MDA-MB-231
Test: NCI tumour cell line growth inhibition, 48 h
The source made the active and inactive calls. Rule as the data show it: active = GI50 up to about 1.1 µM and inactive = higher.
quantity.name: GI50

| molecule | system | value.measured |
| --- | --- | --- |
| COc1cc(/C=C2\NC(=O)N(/C=C3\C(=O)Oc4ccccc4C3=O)C2=O)ccc1O | MDA-MB-231 | 35.2 µM (inactive) |
| CO[C@]12CC(=O)C3(C(C[C@H]4CC5CC=C6C[C@@H](OC(C)=O)CC[C@]6(OC(C)=O)C5C[C@@]43C)C1)C1C[C@H]3[C@@H]4CC=C5C[C@@H](OC(C)=O)CC[C@]5(OC(C)=O)[C@H]4CC[C@]3(C)C12 (stereo partly drawn) | MDA-MB-231 | 14.8 µM (inactive) |
| COc1ccc2c(C(=O)c3cn(CCN4CCOCC4)c4ccccc34)cccc2c1 | MDA-MB-231 | > 100 µM (inactive) |
| C=CCN(CCN(CC=C)S(=O)(=O)c1ccc(C)cc1)S(=O)(=O)c1ccc(C)cc1 | MDA-MB-231 | > 100 µM (inactive) |
| COC(=O)c1cc(NC(=O)c2cc(NC(=O)c3cc([N+](=O)[O-])cn3C)cn2C)cn1C | MDA-MB-231 | 35.6 µM (inactive) |
| Cc1ccc(C(=O)Oc2ccc(/C=C3\CCC/C(=C\c4ccc(OC(=O)c5ccc(C)cc5)cc4)C3=O)cc2)cc1 | MDA-MB-231 | > 100 µM (inactive) |
| CCC(C)C(=O)OC1C(=O)OC2CC3C(C)=CC(=O)C(O)C3(C)C3C4(O)OCC23C1C(C)C4O (stereo not drawn) | MDA-MB-231 | 0.032 µM (active) |
| CN(C)/C=C1\CCc2ccc([N+](=O)[O-])cc2C1=O | MDA-MB-231 | 17.4 µM (inactive) |

* * *

Test system: HL-60
Test: NCI tumour cell line growth inhibition, 48 h
Active and inactive are the calls of the source. No stated cut-off is given here; in the data, active = GI50 up to about 1.1 µM and inactive = higher.
Labels: active, inactive

| compound | label |
| --- | --- |
| CN(C)/C=C1\CCc2ccc([N+](=O)[O-])cc2C1=O | inactive |
| Nc1ccc(S(=O)(=O)Nc2cnc3c(Cl)cccc3n2)cc1 [CHLORSULFAQUINOXALINE] | inactive |
| O=C(c1ccco1)N(Cc1cccnc1)C(=S)N(Cc1cccnc1)C(=O)c1ccco1 | inactive |
| NC(=O)c1ccc(Cl)c([N+](=O)[O-])c1 | inactive |
| C/C(=N\Nc1ccc([N+](=O)[O-])cc1)C(=O)N(C)Nc1ccccc1 | inactive |
| COC(=O)c1ccc(/C=C/C2=CC(=O)C=CC2=O)cc1 | inactive |
| Cn1c(=O)c2c(O)cc(N)nc2n(C)c1=O | inactive |
| Cc1ccc([N+](=O)[O-])cc1S(=O)(=O)Nc1ccc(C(=O)/C=C/c2cccs2)cc1 | inactive |
| Nc1nc(=O)[nH]c2c1cnn2COCCO | inactive |
| COc1ccc(/C=C2\CCS(=O)(=O)c3ccccc3C2=O)cc1 | inactive |
| O=C(O)c1ccc(Oc2nc3ccccc3s2)cc1 | inactive |
| O=C(N/N=C\c1ccccc1)Nc1cccc2ccccc12 | inactive |
| O=C1CC(n2ccnc2)c2c(Cl)sc(Cl)c21 (stereo not drawn) | inactive |
| Oc1ccc(Br)cc1/C=N/c1cccc(C(F)(F)F)c1 | inactive |
| COC(=O)C1=CC2OC1(C)C1(CC1)C2=O (stereo not drawn) | inactive |
| CN(C)/C=N/c1nc2ncn(CCOC(=O)c3ccccc3)c2c(=O)[nH]1 | inactive |
| Nc1nc(Cl)c(N)c(NCC2(CO)CCC2)n1 | inactive |
| COC(=O)c1c(C)nc(C)c(N=O)c1-c1ccccc1C(F)(F)F | inactive |
| COC(=O)c1cc(NC(=O)c2cc(NC(=O)c3cc([N+](=O)[O-])cn3C)cn2C)cn1C | inactive |
| O=C(CC(=O)C1CCOC1=O)C(=O)Nc1cccc(Cl)c1 (stereo not drawn) | inactive |
| C[C@]12CCC(O)CC1=CC[C@@H]1[C@@H]2CC[C@]2(C)C(=O)[C@H](n3ccnc3)C[C@@H]12 (stereo partly drawn) | inactive |
| C=C1C(=O)O[C@H]2[C@H]3O[C@@H](C[C@@H]12)[C@@]1(C)CC[C@H](O1)C(C)=CCC[C@H]3C | active |
| COc1cccc(/C=C\c2ccnc3ccccc23)c1 | inactive |

* * *

Tested on: NCI-H460
Assay: NCI tumour cell line growth inhibition, 48 h
Calls of active or inactive are those of the source. Cut-off read from the data, not from the text of the source: active = GI50 up to about 1.1 µM and inactive = higher.

| compound | GI50 |
| --- | --- |
| CC1=C(SCc2ccccc2)C(=O)c2ccccc2C1=O | 21.8 µM (inactive) |
| CC1C=C(CCCCCCCCCCCC[C@@H](O)[C@@H]2CC[C@@H]([C@@H]3CC[C@@H](C(O)CCCCCCCCCCCCC4=C[C@H](C)OC4=O)O3)O2)C(=O)O1 (some centres undefined) | 0.881 µM (active) |
| COc1cc(/C=C2\NC(=O)N(/C=C3\C(=O)Oc4ccccc4C3=O)C2=O)ccc1O | > 100 µM (inactive) |
| COC(=O)C(C(=O)C(N)=O)c1csc(-n2nc(-c3ccccc3)cc2-c2ccccc2)n1 (centres undefined) | > 31.6 µM (inactive) |
